Tested on: hTERT-HMEC;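 further: secreted proteins added to cultured cells, EdU pulse at the end, nuclei found by Hoechst imaging, EdU status from nuclear versus surrounding ring intensity ratio, PBS as neutral control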
ASSAY INFO: percentage of EdU-negative (G0-arrested) nuclei per well, 72 h; higher = more G0 arrest
RECORDED CONDITIONS: protein concentration 0.0225 µM; reference: sequence is the full UniProt precursor, the tested protein was the secreted form or ectodomain
PROPERTY MEASURED: percentage of EdU-negative (%)
// note: answer is a bare numeric in %

Consider the following illustrative entries.
MDLSRPRWSLWRRVFLMASLLACGICQASGQIFITQTLGIKGYRTVVALDKVPEDVQEYSWYWGANDSAGNMIISHKPPSAQQPGPMYTGRERVNREGSLLIRPTALNDTGNYTVRVVAGNETQRATGWLEVLELGSNLGISVNASSLVENMDSVAADCLTNVTNITWYVNDVPTSSSDRMTISPDGKTLVILRVSRYDRTIQCMIESFPEIFQRSERISLTVAYGPDYVLLRSNPDDFNGIVTAEIGSQVEMECICYSFLDLKYHWIHNGSLLNFSDAKMNLSSLAWEQMGRYRCTVENPVTQLIMYMDVRIQAPHEDLTCCPQRFLHLRIHGDVPHHADSAGWRLHLWSPDPCSDQPLLNQDKSGSMSVHPRPEDKTRRASR [A8MTB9] | 4.89
MVSRMVSTMLSGLLFWLASGWTPAFAYSPRTPDRVSEADIQRLLHGVMEQLGIARPRVEYPAHQAMNLVGPQSIEGGAHEGLQHLGPFGNIPNIVAELTGDNIPKDFSEDQGYPDPPNPCPVGKTADDGCLENTPDTAEFSREFQLHQHLFDPEHDYPGLGKWNKKLLYEKMKGGERRKRRSVNPYLQGQRLDNVVAKKSVPHFSDEDKDPE | 5.41
MAVRQWVIALALAALLVVDREVPVAAGKLPFSRMPICEHMVESPTCSQMSNLVCGTDGLTYTNECQLCLARIKTKQDIQIMKDGKC | 5.06
MGPLPVCLPIMLLLLLPSLLLLLLLPGPGSGEASRILRVHRRGILELAGTVGCVGPRTPIAYMKYGCFCGLGGHGQPRDAIDWCCHGHDCCYTRAEEAGCSPKTERYSWQCVNQSVLCGPAENKCQELLCKCDQEIANCLAQTEYNLKYLFYPQFLCEPDSPKCD | 7.05
MAAFPHKIIFFLVCSTLTHVAFSGIFNKRDFTRWPKPRCKMYIPLDPDYNADCPNVTAPVCASNGHTFQNECFFCVEQREFHYRIKFEKYGKCD [Q1W4C9] | 5.06

Request the reported percentage of EdU-negative associated with MRLLQLLFRASPATLLLVLCLQLGANKAQDNTRKIIIKNFDIPKSVRPNDEVTAVLAVQTELKECMVVKTYLISSIPLQGAFNYKYTACLCDDNPKTFYWDFYTNRTVQIAAVVDVIRELGICPDDAAVIPIKNNRFYTIEILKVE
4.78

Request the reported percentage of EdU-negative associated with MLSSVVFWGLIALIGTSRGSYPFSHSMKPHLHPRLYHGCYGDIMTMKTSGATCDANSVMNCGIRGSEMFAEMDLRAIKPYQTLIKEVGQRHCVDPAVIAAIISRESHGGSVLQDGWDHRGLKFGLMQLDKQTYHPVGAWDSKEHLSQATGILTERIKAIQKKFPTWSVAQHLKGGLSAFKSGIEAIATPSDIDNDFVNDIIARAKFYKRQSF [Q86SG7]
4.33

Recorded values, source the supplement of paper PMC11316812.
